- Tested on: OVCAR-5 ovarian
- Assay summary: NCI-60 one-dose screen, 48 h (100 = growth as untreated, 0 = no growth, -100 = all killed)
- Experimental setup: 10 µM unless noted
The panel holds about 83,000 compounds, 20% with a hit somewhere; the sample as a whole holds those more often.
Quick reference: growth of the listed items.
Result type: growth (%)

>>> recorded_number("CCN1CCN(Cc2ccc(NC(=O)Nc3cccc(-n4ccc5c(NC(=O)c6ccccc6)nccc54)c3)cc2C(F)(F)F)CC1")
101
>>> recorded_number("COc1ccc2c(c1)OC(N(C(C)=O)C(C)=O)=C(C#N)C2c1ccc(F)cc1 (stereo not given)")
65.2
>>> recorded_number("O=c1c2ccccc2sc2c(NCCN3CCOCC3)nc3ccccc3c12")
84.9
>>> recorded_number("CCn1cc(/C=C2\\Oc3cc(OCC#N)ccc3C2=O)c2cc(OC)ccc21")
62.1
>>> recorded_number("COC(OC)C1(c2ccccc2)NC(=O)NC1=O (stereo not given)")
122
>>> recorded_number("O=C(Nc1cccc(-n2ccc3c(NC(=O)c4ccccc4)ncnc32)c1)Nc1ccc(Cl)c(C(F)(F)F)c1")
48.1
>>> recorded_number("O=C1C(Cl)=C(Nc2ccccc2)C(=O)C(Cl)=C1Nc1ccccc1")
112
>>> recorded_number("COc1ccc(-c2cc3ccc(N(C)C)cc3nc2N)c(F)c1")
69.6
>>> recorded_number("COc1ccc(/C=N/C2=NNC(C)(c3ccccc3O)N2C(Cc2c[nH]c3ccccc23)C(=O)O)cc1 (stereo not given)")
69.4
>>> recorded_number("Cc1cccc(NC(=O)CCc2ccc(N3C(N)=NC(N)=NC3(C)C)cc2)c1")
46.7
